The compounds listed here are annotated with their AC50.
system under test: human PAH with the R408W mutation (Homo sapiens, UniProt P00439, R408W)
Construct: expressed in transfected cells
Sequence (P00439 whole entry R408W): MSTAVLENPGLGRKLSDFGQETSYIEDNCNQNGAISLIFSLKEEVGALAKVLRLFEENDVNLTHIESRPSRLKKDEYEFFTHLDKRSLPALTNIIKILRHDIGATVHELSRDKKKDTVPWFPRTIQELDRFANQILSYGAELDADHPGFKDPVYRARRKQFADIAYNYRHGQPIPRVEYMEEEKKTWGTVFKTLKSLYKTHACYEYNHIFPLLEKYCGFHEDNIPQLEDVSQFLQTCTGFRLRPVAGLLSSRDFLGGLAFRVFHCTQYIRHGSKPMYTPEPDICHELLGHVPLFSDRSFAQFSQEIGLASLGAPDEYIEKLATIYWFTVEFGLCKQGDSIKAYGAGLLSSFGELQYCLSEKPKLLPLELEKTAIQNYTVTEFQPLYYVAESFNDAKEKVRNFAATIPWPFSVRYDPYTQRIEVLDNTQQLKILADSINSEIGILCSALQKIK
experimental protocol: Cell Based Phenylalanine Flux Assay
test parameters: A375 cells expressing human R408W PAH; 24 hrs compound incubation; 13C-Tyrosine by LC-MS; average where tested multiple times; read-out: AC50

Field: example entries. Status: answers known.
>>> value_observed("CC(C)(O)c1nc(C(F)F)c(C(=O)N2CCc3[nH]cnc3[C@H]2c2cc3ccc(F)cn3n2)o1")
"< 0.5 µM"
>>> value_observed("CC(C)(O)c1nc(Br)c(C(=O)N2CCc3[nH]cnc3[C@@H]2c2cc3c(F)cccn3n2)o1")
"> 5 µM"
>>> value_observed("Cc1cccn2nc([C@H]3c4nc[nH]c4CCN3C(=O)c3nnc(-c4cnn(C(F)F)c4)o3)cc12")
"> 5 µM"
>>> value_observed("Cc1nc(C(C)(C)F)oc1C(=O)N1CCc2[nH]cnc2[C@H]1c1cc2cccc(F)n2n1")
"< 0.5 µM"
>>> value_observed("O=C(c1nnc(-c2ccccn2)o1)N1CCc2[nH]cnc2[C@H]1c1cc2cccc(F)n2n1")
"< 0.5 µM"

Exercise: For the compound shown here, Cc1cccc2cc([C@@H]3c4nc[nH]c4CCN3C(=O)c3nnc(-c4ncccn4)o3)nn12 , give the reported AC50.
Solution: 0.5 to 1 µM

Exercise: Same question, COc1ccc(-c2nnc(C(=O)N3CCc4[nH]cnc4[C@@H]3c3cc4c(C(F)(F)F)cccn4n3)o2)nc1 this time
Solution: > 5 µM

Exercise: Same question, FC(F)(F)c1cnc(N2CCc3[nH]cnc3[C@@H]2c2cc3c(Cl)cccn3n2)nc1 this time
Solution: > 5 µM

Exercise: Same question, Cc1ccc2cc([C@@H]3c4nc[nH]c4CCN3C(=O)c3nnc(-c4ccn(C)n4)o3)nn2c1 this time
Solution: < 0.5 µM

Exercise: Same question, Cc1ncoc1C(=O)N1CCc2[nH]cnc2[C@H]1c1cc2cccc(C)n2n1 this time
Solution: 0.5 to 1 µM

* * *

system under test: human PAH with the R408W mutation (Homo sapiens, UniProt P00439, R408W)
Construct: expressed in transfected cells
experimental protocol: Cell Based Phenylalanine Flux Assay
test parameters: A375 cells expressing human PAH R408W; 24 hrs compound incubation; 13C-Tyrosine by LC-MS; average where tested multiple times; read-out: AC50
The molecules listed here are annotated with their AC50.

>>> value_observed("Fc1cccnc1-c1nnc(N2CCc3[nH]cnc3[C@@H]2c2cc3ccccn3n2)o1")
"> 5000 nM"
>>> value_observed("Cc1cc(-c2nnc(C(=O)N3CCc4[nH]cnc4[C@H]3c3cc4c(C(C)C)cccn4n3)o2)nn1C")
"< 500 nM"
>>> value_observed("O=C(c1ocnc1C1CC1)N1CCc2[nH]cnc2[C@@H]1c1cc2c(Cl)cccn2n1")
"1000 to 5000 nM"

Exercise: For the molecule shown here, CC(F)(F)c1nnc(N2CCc3[nH]cnc3[C@H]2c2cc3c(F)cccn3n2)o1 , give the reported AC50.
Solution: 500 to 1000 nM

Exercise: Same question, O=C(c1nnc(-c2ccccn2)o1)N1CCc2[nH]cnc2[C@H]1c1cc2ccc(C(F)(F)F)cn2n1 this time
Solution: 1000 to 5000 nM

* * *

system under test: human PAH with the R408W mutation (Homo sapiens, UniProt P00439, R408W)
Construct: expressed in transfected cells
experimental protocol: Cell Based Phenylalanine Flux Assay;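 further: after compound treatment, cells received sepiapterin plus isotope-labelled Phenylalanine for 4 hours, then labelled Tyrosine in the medium was quantified, 10-point 2-fold dilution series run in duplicate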
test parameters: A375 cells expressing human PAH R408W; 24 hrs compound incubation; 13C-Tyrosine by LC-MS; average where tested multiple times; read-out: AC50
test readout: AC50

Field: example entries. Status: answers known.
>>> value_observed("Cc1cccc(-c2nnc(N3CCc4[nH]cnc4[C@H]3c3cc4c(C(F)F)cccn4n3)o2)n1")
"500 to 1000 nM"
>>> value_observed("Fc1ccc(-c2nnc(N3CCc4[nH]cnc4[C@H]3c3cc4c(C(F)(F)F)cccn4n3)o2)cc1")
"< 500 nM"

Exercise: For the molecule shown here, CC(C)(O)c1nnc(C(=O)N2CCc3[nH]cnc3[C@H]2c2cc3c(Cl)cccn3n2)o1 , give the reported AC50.
Solution: 1000 to 5000 nM

Exercise: Same question, Cc1cccn2nc([C@@H]3c4nc[nH]c4CCN3C(=O)c3nnc(C4CC4)s3)cc12 this time
Solution: 500 to 1000 nM

Exercise: Same question, O=C(c1ccnn1-c1ccccn1)N1CCc2[nH]cnc2[C@H]1c1cc2c(F)cccn2n1 this time
Solution: 1000 to 5000 nM

Exercise: Same question, Cc1cccnc1-c1nnc(N2CCc3[nH]cnc3[C@H]2c2cc3c(C4CC4)cccn3n2)o1 this time
Solution: < 500 nM

Exercise: Same question, O=C(c1nc2ccccc2s1)N1CCc2[nH]cnc2[C@H]1c1cc2c(C(F)F)cccn2n1 this time
Solution: 500 to 1000 nM

Exercise: Same question, Cn1nc(C(F)(F)F)nc1C(=O)N1CCc2[nH]cnc2[C@@H]1c1cc2c(F)cccn2n1 this time
Solution: 1000 to 5000 nM

Exercise: Same question, O=C(c1nnc(C2CCC2)o1)N1CCc2[nH]cnc2[C@@H]1c1cc2cccc(C(F)(F)F)n2n1 this time
Solution: 1000 to 5000 nM

Exercise: Same question, Cn1cc(-c2ccc3c(C(=O)N4CCc5[nH]cnc5[C@H]4c4cc5c(F)cccn5n4)cnn3c2)cn1 this time
Solution: 1000 to 5000 nM

Exercise: Same question, FC(F)(F)c1cccn2nc([C@@H]3c4nc[nH]c4CCN3c3ccccn3)cc12 this time
Solution: < 500 nM

Exercise: Same question, Cc1cccn2nc([C@@H]3c4nc[nH]c4CCN3C(=O)c3cnc(-c4ccccn4)o3)cc12 this time
Solution: 500 to 1000 nM

Exercise: Same question, Cc1cccn2nc([C@@H]3c4nc[nH]c4CCN3c3cnccn3)cc12 this time
Solution: < 500 nM
